Listed here are substances together with their documented % INHIB 150 nm.
- System: human apolipoprotein B mRNA
- Method Description: Inhibition of human apolipoprotein B mRNA levels in HepG2 cells, quantitative real-time PCR
- Format: cell-based
- Condition Details: Table 13 gene walk; HepG2 cells, 150 nM; averages from two experiments
In the oligonucleotide strings, read from the 5' end, every base follows the letter of its sugar. An asterisk marks phosphorothioate; unmarked linkages are phosphodiester. Other units and linkages are bracketed, terminal groups are in braces. A string of capitals states the bases alone. e = 2'-O-(2-methoxyethyl) (MOE); [5mC] = 5-methylcytosine; d = 2'-deoxy (DNA)
The response must be a number in % with no trailing unit.

{"Substance": "308623 (eG*e[5mC]*eG*e[5mC]*e[5mC]*dT*dT*d[5mC]*dT*dG*d[5mC]*dT*dT*dG*dA*eG*eT*eT*eA*e[5mC]; antisense) [compound 308623]", "Experimental Result": 71}
{"Substance": "308626 (eA*eG*eT*e[5mC]*eT*dG*d[5mC]*dT*dT*d[5mC]*dG*d[5mC]*dG*d[5mC]*d[5mC]*eT*eT*e[5mC]*eT*eG; antisense) [compound 308626]", "Experimental Result": 94}
{"Substance": "308622 (eG*e[5mC]*e[5mC]*eT*eT*d[5mC]*dT*dG*d[5mC]*dT*dT*dG*dA*dG*dT*eT*eA*e[5mC]*eA*eA; antisense) [compound 308622]", "Experimental Result": 87}
{"Substance": "308627 (eT*e[5mC]*eA*eG*eT*d[5mC]*dT*dG*d[5mC]*dT*dT*d[5mC]*dG*d[5mC]*dG*e[5mC]*e[5mC]*eT*eT*e[5mC]; antisense) [compound 308627]", "Experimental Result": 89}

Please find the next substance below.
INPUT: Record request: % INHIB 150 nm value, item 308628 (e[5mC]*e[5mC]*eT*e[5mC]*eA*dG*dT*d[5mC]*dT*dG*d[5mC]*dT*dT*d[5mC]*dG*e[5mC]*eG*e[5mC]*e[5mC]*eT; antisense) [compound 308628]
OUTPUT: 92

====

- Test system: human apolipoprotein B mRNA
- Method Description: Inhibition of human apolipoprotein B mRNA levels in HepG2 cells, quantitative real-time PCR
- Format: cell-based
- Condition Details: Table 11 gene walk; HepG2 cells, 50 nM; averages from two experiments
In the oligonucleotide strings, read from the 5' end, every base follows the letter of its sugar. An asterisk marks phosphorothioate; unmarked linkages are phosphodiester. Other units and linkages are bracketed, terminal groups are in braces. A string of capitals states the bases alone. e = 2'-O-(2-methoxyethyl) (MOE); [5mC] = 5-methylcytosine; d = 2'-deoxy (DNA)
Listed here are substances together with their documented % INHIB 50 nm.
The response must be a number in % with no trailing unit.

Field: example entries. Status: answers known.
{"Substance": "308592 (antisense eT*e[5mC]*eG*e[5mC]*eA*d[5mC]*d[5mC]*dT*dT*d[5mC]*dT*dG*d[5mC]*dT*dT*eG*eA*eG*eT*eT) [compound 308592]", "Measure": "% INHIB 50 nm", "Units Text": "%", "Experimental Result": 49}
{"Substance": "308601 (antisense eT*eG*eG*eT*eA*dG*d[5mC]*d[5mC]*dT*d[5mC]*dA*dG*dT*d[5mC]*dT*eG*e[5mC]*eT*eT*e[5mC]) [compound 308601]", "Measure": "% INHIB 50 nm", "Units Text": "%", "Experimental Result": 63}
{"Substance": "308591 (antisense eG*e[5mC]*eA*e[5mC]*e[5mC]*dT*dT*d[5mC]*dT*dG*d[5mC]*dT*dT*dG*dA*eG*eT*eT*eA*e[5mC]) [compound 308591]", "Measure": "% INHIB 50 nm", "Units Text": "%", "Experimental Result": 76}
{"Substance": "308597 (antisense eT*e[5mC]*eA*eG*eT*d[5mC]*dT*dG*d[5mC]*dT*dT*d[5mC]*dG*d[5mC]*dA*e[5mC]*e[5mC]*eT*eT*e[5mC]) [compound 308597]", "Measure": "% INHIB 50 nm", "Units Text": "%", "Experimental Result": 66}

Please find the next substance below.
INPUT: Which % INHIB 50 nm is reported with human apolipoprotein B mRNA for this entry: 308613 (eT*eA*eG*eG*eT*dT*dA*d[5mC]*d[5mC]*dA*dG*d[5mC]*d[5mC]*dA*d[5mC]*eA*eT*eG*e[5mC]*eA; antisense) [compound 308613] ?
OUTPUT: 43
